READOUT: pKd
Lab note: report pKd as minus log10 of the concentration in molar units, number only.

Enquiry: Param readout = pKd; param system = TNIK; param query = NS(=O)(=O)c1cccc(N/C=C2\C(=O)Nc3ccc(S(=O)(=O)Cc4c(Cl)cccc4Cl)cc32)c1 ; response: value;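 further: kd values determined as follow-up on hits from a single-replicate KINOMEscan panel screen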
Return: 6.48

---

Test system: TRKC;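 further: KINOMEscan kinase panel screen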
Construct: gene NTRK3
Details: concentration: 1 μM, replicates: in singlicate; n = 1
I'd be grateful if you could share measured %Inh for these entries.
Give the value, in units of %, as a plain number.

Enquiry: Need %Inh of Cc1ccc(NC(=O)c2ccc(Cl)cc2)cc1-c1ccc(C(=O)Nc2ccncc2)cc1 [GSK1398467] , thanks.
Return: 25

Enquiry: Need %Inh of O=c1cc(N2CCOCC2)nc2n(Cc3ccccc3F)ccn12 [GSK2297428] , thanks.
Return: 0

Enquiry: Need %Inh of O=c1cc(N2CCOCC2)nc2n(Cc3cccc(Cl)c3Cl)c3ccccc3n12 [GSK2299009] , thanks.
Return: 0

Enquiry: Need %Inh of Cn1cncc1C(=O)NC1CCN(c2ccnc(Nc3ccc(F)cc3)n2)C1 (stereo not drawn) [GSK1379717] , thanks.
Return: 48

Enquiry: Need %Inh of COc1ccc(Nc2nccc(N3CCC(NC(=O)C(C)c4ccc(Cl)cc4)CC3)n2)cc1 (stereo not drawn) [GSK1379812] , thanks.
Return: 0

Enquiry: Need %Inh of CNc1cc(-c2ccc3c(N)n[nH]c3c2)nc(N)n1 [GSK2224810] , thanks.
Return: 0

Enquiry: Need %Inh of CS(=O)(=O)Cc1ccc(Nc2nccc(-c3c(-c4cccc(NC(=O)C5CCCCC5)c4)nn4ncccc34)n2)cc1 [GSK350559] , thanks.
Return: 27

Enquiry: Need %Inh of Cc1ccccc1-c1cc(-c2c[nH]nc2-c2ccccn2)ccn1 [GW680061] , thanks.
Return: 16

Enquiry: Need %Inh of COc1cccc(C2=C(Nc3cc(Cl)c(O)c(Cl)c3)C(=O)NC2=O)c1 [SB-390767] , thanks.
Return: 0

Enquiry: Need %Inh of COC(=O)C(Cc1ccccc1)NC(=O)NC1CCN(c2ccnc(Nc3ccc(F)cc3)n2)C1 (stereo not drawn) [GSK1379714] , thanks.
Return: 25

Enquiry: Need %Inh of Cc1ccc(NC(=O)Nc2ccc(Cl)c(C(F)(F)F)c2)cc1-c1ccc(C(=O)Nc2ccncc2)cc1 [GSK1398470] , thanks.
Return: 0

Enquiry: Need %Inh of COC(=O)c1cccc(NC(=O)NC2CCN(c3ccnc(Nc4ccc(F)cc4)n3)C2)c1 (stereo not drawn) [GSK1379725] , thanks.
Return: 82

Enquiry: Need %Inh of CC(=O)c1c(C)c2cnc(Nc3ccn(C)n3)nc2n(C2CCCC2)c1=O , thanks.
Return: 0

Enquiry: Need %Inh of COc1ccc(CSc2nnc(-c3ccc4c(c3)CCO4)o2)cc1 , thanks.
Return: 0

Enquiry: Need %Inh of CN1c2ccc(-c3ccc(C(N)=O)cc3)cc2-c2[nH]ncc2S1(=O)=O , thanks.
Return: 0

Enquiry: Need %Inh of Nc1cccc(-c2ccc3c(N)n[nH]c3c2)n1 [GSK2192730] , thanks.
Return: 0

Enquiry: Need %Inh of CC(=O)c1cccc(NC(=O)NC2CCN(c3ccnc(Nc4ccc(F)cc4)n3)C2)c1 (stereo not drawn) [GSK1379710] , thanks.
Return: 81

Enquiry: Need %Inh of COC(=O)C(NC(=O)NC1CCN(c2ccnc(Nc3ccc(F)cc3)n2)C1)c1ccccc1 (stereo not drawn) [GSK1379712] , thanks.
Return: 29
